Entries annotated with measured pIC50
- TARGET_OR_TEST_SYSTEM: Voltage-gated inwardly rectifying potassium channel KCNH2 (Homo sapiens) (UniProt Q12809)
- Sequence (Q12809 whole entry, looked up): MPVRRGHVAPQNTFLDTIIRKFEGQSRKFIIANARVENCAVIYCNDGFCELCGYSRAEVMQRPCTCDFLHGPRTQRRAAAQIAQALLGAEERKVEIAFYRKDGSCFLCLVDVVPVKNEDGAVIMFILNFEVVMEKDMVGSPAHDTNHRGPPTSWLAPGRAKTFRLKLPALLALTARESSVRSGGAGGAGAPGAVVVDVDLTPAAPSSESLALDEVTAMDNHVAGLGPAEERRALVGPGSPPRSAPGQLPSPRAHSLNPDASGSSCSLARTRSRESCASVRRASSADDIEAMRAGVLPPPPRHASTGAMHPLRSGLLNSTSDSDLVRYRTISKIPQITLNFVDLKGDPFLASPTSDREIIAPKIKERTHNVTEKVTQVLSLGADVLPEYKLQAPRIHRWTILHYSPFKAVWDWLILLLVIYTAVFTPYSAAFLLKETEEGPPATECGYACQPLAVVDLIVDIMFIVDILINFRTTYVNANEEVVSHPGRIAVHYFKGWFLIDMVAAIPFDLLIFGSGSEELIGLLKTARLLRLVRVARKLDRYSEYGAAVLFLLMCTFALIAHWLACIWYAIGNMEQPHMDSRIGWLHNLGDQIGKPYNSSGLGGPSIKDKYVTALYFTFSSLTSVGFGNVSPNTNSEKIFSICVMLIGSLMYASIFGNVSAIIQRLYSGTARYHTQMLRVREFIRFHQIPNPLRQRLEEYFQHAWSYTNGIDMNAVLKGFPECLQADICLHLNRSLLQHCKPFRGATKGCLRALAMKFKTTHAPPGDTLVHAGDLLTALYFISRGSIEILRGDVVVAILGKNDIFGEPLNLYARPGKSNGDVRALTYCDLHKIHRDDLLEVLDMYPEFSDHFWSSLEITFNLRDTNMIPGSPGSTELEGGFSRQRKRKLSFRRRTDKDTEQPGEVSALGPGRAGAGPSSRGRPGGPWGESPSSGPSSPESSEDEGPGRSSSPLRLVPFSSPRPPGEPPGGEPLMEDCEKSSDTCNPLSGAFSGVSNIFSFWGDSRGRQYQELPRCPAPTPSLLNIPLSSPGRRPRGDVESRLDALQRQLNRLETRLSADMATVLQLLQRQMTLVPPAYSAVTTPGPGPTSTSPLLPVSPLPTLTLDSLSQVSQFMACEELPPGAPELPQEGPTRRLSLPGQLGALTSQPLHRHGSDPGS
- ASSAY_REMARKS: hERG potassium channel inhibition, SAR follow-up, selectivity assay for Kir2.1 inhibitor project, CHO cells, automated electrophysiology (AID 504555)
- ASSAY_CONTEXT: automated patch clamp, tail current
# reply with the number alone; pIC50 is -log10 of concentration in mol/L

Solved cases below.
>  <CPD_SMILES>
Cc1ccc(S(=O)(=O)N[C@@H](C)c2ccccc2)cc1

>  <VAL>
4.56

$$$$
>  <CPD_SMILES>
c1ccc(COc2ccc(OCCCNC3CCCC3)cc2)cc1

>  <VAL>
5.66

$$$$

Inquiry: Which pIC50 value belongs to C[C@@H](NS(=O)(=O)c1cccc(Br)c1)c1ccccc1 ?
Reply text: 4.75

Inquiry: For C[C@H](NS(=O)(=O)c1ccc(Br)cc1)c1ccccc1 , what is its reported pIC50?
Reply text: 4.75

Inquiry: Using the record for Cc1ccc2nc(N3CCN(CCO)CC3)nc(-c3ccccc3)c2c1 , report its pIC50.
Reply text: 5.54

Inquiry: Recorded pIC50 of Cc1ccc(C)c(OCCCNCc2ccccc2)c1 , please.
Reply text: 4.71

----------
- TARGET_OR_TEST_SYSTEM: Voltage-gated inwardly rectifying potassium channel KCNH2 (Homo sapiens) (UniProt Q12809)
- ASSAY_REMARKS: hERG potassium channel inhibition, SAR follow-up, selectivity assay for Kir2.1 inhibitor project, CHO cells, automated electrophysiology (AID 504555)
- ASSAY_CONTEXT: automated patch clamp, tail current
MEASUREMENT_LABEL: IC50

>  <COMPOUND>
CC(O)CNCCCOc1cccc(Oc2ccccc2)c1 (configuration not stated)

>  <TARGET_OR_TEST_SYSTEM>
Voltage-gated inwardly rectifying potassium channel KCNH2 (Homo sapiens) (UniProt Q12809)

>  <IC50>
6.96 µM

$$$$

Inquiry: Please report the recorded IC50 for Cc1ccc(Nc2cc(C)nc3c(C)cccc23)cc1 .
Reply text: 2.33 µM

Inquiry: Would you mind telling me what IC50 value was observed for Cc1noc(C)c1COC(=O)CCN1c2ccccc2Sc2ccccc21 ?
Reply text: 29.1 µM

Inquiry: // IC50 lookup, key: c1ccc(CNc2c3ccccc3nc3ccccc23)cc1
Reply text: 0.433 µM

Inquiry: I'd like to know its IC50. The compound in question is C[C@@H](NS(=O)(=O)c1ccc(Cl)cc1)c1ccccc1
Reply text: 19.5 µM

Inquiry: # get_value(readout='IC50', item= C[C@H](NS(=O)(=O)c1cccc(Br)c1)c1ccccc1 )
Reply text: 10.2 µM

Inquiry: What measured IC50 goes with Cc1ccc2nc(NCc3ccccc3)[nH]c2c1 ?
Reply text: 13 µM
